Value source: paper PMC4788153

Test: Chiral plasma pharmacokinetics of MDMA and its phase I and II metabolites after controlled MDMA administration
Assay type: in vivo, human
Settings: bupropion+MDMA vs placebo+MDMA, CYP2D6 EMs; unsigned = increase
Procedure: Blood plasma samples were analyzed non-stereoselectively as reported previously and reanalyzed for the present report using liquid chromatography-mass spectrometry/mass spectrometry after chiral derivatization with Marfey’s reagent as described previously. The method was fully validated, including selectivity, recovery, matrix effects, bias and imprecision, stability, and limit of quantification.
Counter-ions that a name gives are not always drawn.
VALUE_TYPE: change in AUC24 after bupropion pretreatment (%)
Your answer should be a plain number; it is taken to be in %.

Below: 5 compounds and their reported change in AUC24 after bupropion pretreatment.
| COMPOUND | TEST_VALUE |
| --- | --- |
| CNC(C)Cc1ccc(OC2OC(C(=O)O)C(O)C(O)C2O)c(OC)c1 (stereo not shown) [R-HMMA glucuronide] | -71 |
| CN[C@@H](C)Cc1ccc(OS(=O)(=O)O)c(OC)c1 [S-HMMA sulfate] | -61 |
| CC(N)Cc1ccc2c(c1)OCO2 (stereo not shown) [S-MDA, 3,4-methylenedioxyamphetamine] | -20 |
| CN[C@H](C)Cc1ccc(O)c(OS(=O)(=O)O)c1 [R-DHMA 3-sulfate] | -61 |
| CN[C@@H](C)Cc1ccc(O)c(OS(=O)(=O)O)c1 [S-DHMA 3-sulfate] | -56 |

Sample CN[C@@H](C)Cc1ccc2c(c1)OCO2 ; change in AUC24 after bupropion pretreatment observed: 38

Sample CN[C@H](C)Cc1ccc2c(c1)OCO2 ; change in AUC24 after bupropion pretreatment observed: 25

###

Assay: Chiral plasma pharmacokinetics of MDMA and its phase I and II metabolites after controlled MDMA administration
Type: in vivo, human
Details: both sexes, human, plasma, oral, bupropion+MDMA (125 mg), CYP2D6 EM (EM/Bup), n=13, plasma; read-out: AUC0-24h R
Structures can show the parent of a compound that is named as a salt.
VALUE_TYPE: AUC(0-t) (µM·h)
Your answer should be a plain number; it is taken to be in µM·h.

Below: 3 compounds and their reported AUC(0-t).
| COMPOUND | AUC(0-t) (µM·h) |
| --- | --- |
| CNC(C)Cc1ccc(OC2OC(C(=O)O)C(O)C(O)C2O)c(OC)c1 (stereo not drawn) [R-HMMA glucuronide] | 0.96 |
| CN[C@H](C)Cc1ccc2c(c1)OCO2 | 10.9 |
| CN[C@H](C)Cc1ccc(O)c(OS(=O)(=O)O)c1 [R-DHMA 3-sulfate] | 0.96 |

Sample CN[C@H](C)Cc1ccc(OS(=O)(=O)O)c(OC)c1 [R-HMMA sulfate] ; AUC(0-t) observed: 2.1

Sample CC(N)Cc1ccc2c(c1)OCO2 (stereo not drawn) ; AUC(0-t) observed: 0.19

Sample CN[C@H](C)Cc1ccc(OS(=O)(=O)O)c(O)c1 [R-DHMA 4-sulfate] ; AUC(0-t) observed: 0.71

###

Assay: Chiral plasma pharmacokinetics of bupropion and hydroxybupropion
Conditions: both, human, plasma, oral, 300 mg, t1/2 R/ R,R, bupropion+placebo (P), CYP2B6 genotype reduced, plasma
VALUE_TYPE: half-life (h)
Your answer should be a plain number; it is taken to be in h.

Sample C[C@@H](NC(C)(C)C)C(=O)c1cccc(Cl)c1 ; half-life observed: 8.9

###

Assay: Chiral plasma pharmacokinetics of bupropion and hydroxybupropion
Conditions: both, human, plasma, oral, t1/2 R/ R,R, bupropion+MDMA (M), CYP2B6 genotype normal, plasma
VALUE_TYPE: half-life (min)
Your answer should be a plain number; it is taken to be in min.

Sample C[C@@H](NC(C)(C)C)C(=O)c1cccc(Cl)c1 ; half-life observed: 510

###

Assay: Chiral plasma pharmacokinetics of bupropion and hydroxybupropion
Details: both, human, plasma, oral, t1/2 S/ S,S, bupropion+MDMA (M), CYP2B6 genotype reduced, plasma
VALUE_TYPE: half-life (h)
Your answer should be a plain number; it is taken to be in h.

Sample C[C@H](NC(C)(C)C)C(=O)c1cccc(Cl)c1 [S-bupropion, bupropion] ; half-life observed: 6.8

###

Assay: Chiral plasma pharmacokinetics of bupropion and hydroxybupropion
Conditions: both, human, plasma, oral, 300 mg, t1/2 R/ R,R, bupropion+placebo (P), CYP2B6 genotype normal, plasma
VALUE_TYPE: half-life (h)
Your answer should be a plain number; it is taken to be in h.

Sample C[C@@H](NC(C)(C)C)C(=O)c1cccc(Cl)c1 ; half-life observed: 8.4

###

Test: Chiral plasma pharmacokinetics of MDMA and its phase I and II metabolites after controlled MDMA administration
Assay type: in vivo, human
Details: IMs
Counter-ions that a name gives are not always drawn.
The following compounds are listed with their measured metabolite/MDMA ratio, mean initial (highest, first hour) values.
Respond with the number and no other words.

Below: 3 compounds and their reported metabolite/MDMA ratio, mean initial (highest, first hour).
| COMPOUND | TEST_VALUE |
| --- | --- |
| CN[C@@H](C)Cc1ccc(OS(=O)(=O)O)c(O)c1 [S-DHMA 4-sulfate] | 0.91 |
| CNC(C)Cc1ccc(OC2OC(C(=O)O)C(O)C(O)C2O)c(OC)c1 (centres unmarked) [R-HMMA glucuronide] | 0.05 |
| CNC(C)Cc1ccc(OC2OC(C(=O)O)C(O)C(O)C2O)c(OC)c1 (centres unmarked) [S-HMMA glucuronide] | 0.30 |

Sample CN[C@H](C)Cc1ccc(OS(=O)(=O)O)c(O)c1 [R-DHMA 4-sulfate] ; metabolite/MDMA ratio, mean initial (highest, first hour) observed: 0.94

Sample CN[C@@H](C)Cc1ccc(O)c(OS(=O)(=O)O)c1 [S-DHMA 3-sulfate] ; metabolite/MDMA ratio, mean initial (highest, first hour) observed: 8.8

Sample CN[C@H](C)Cc1ccc(O)c(OS(=O)(=O)O)c1 [R-DHMA 3-sulfate] ; metabolite/MDMA ratio, mean initial (highest, first hour) observed: 1.9

Sample CN[C@H](C)Cc1ccc(OS(=O)(=O)O)c(OC)c1 [R-HMMA sulfate] ; metabolite/MDMA ratio, mean initial (highest, first hour) observed: 1.9

Sample CN[C@@H](C)Cc1ccc(OS(=O)(=O)O)c(OC)c1 [S-HMMA sulfate] ; metabolite/MDMA ratio, mean initial (highest, first hour) observed: 2.3

###

Experiment: Chiral plasma pharmacokinetics of MDMA and its phase I and II metabolites after controlled MDMA administration
Assay type: in vivo, human
Settings: both sexes, human, plasma, oral, placebo+MDMA (125 mg), CYP2D6 EM, n=13, plasma; read-out: t1/2 R (converted)
Structures can show the parent of a compound that is named as a salt.
The following compounds are listed with their measured half-life values.
Your answer should be a plain number; it is taken to be in h.

| COMPOUND | UOM | half-life |
| --- | --- | --- |
| CNC(C)Cc1ccc(OC2OC(C(=O)O)C(O)C(O)C2O)c(OC)c1 (centres unmarked) [R-HMMA glucuronide] | h | 16 |

Sample CN[C@H](C)Cc1ccc(O)c(OS(=O)(=O)O)c1 [R-DHMA 3-sulfate] ; half-life observed: 20.2

Sample CN[C@H](C)Cc1ccc2c(c1)OCO2 ; half-life observed: 8.2

Sample CN[C@H](C)Cc1ccc(OS(=O)(=O)O)c(O)c1 [R-DHMA 4-sulfate] ; half-life observed: 17.5

Sample CN[C@H](C)Cc1ccc(OS(=O)(=O)O)c(OC)c1 [R-HMMA sulfate] ; half-life observed: 17.5

###

Assay: Chiral plasma pharmacokinetics of MDMA and its phase I and II metabolites after controlled MDMA administration
Type: in vivo, human
Details: both sexes, human, plasma, oral, 125 mg, placebo+MDMA (125 mg), CYP2D6 EM, n=13, plasma; read-out: Cmax S
Where a name gives a salt, the structure may show the parent alone.
VALUE_TYPE: Cmax (nM)
Your answer should be a plain number; it is taken to be in nM.

Below: 5 molecules and their reported Cmax.
| MOLECULE | UOM | Cmax |
| --- | --- | --- |
| CN[C@@H](C)Cc1ccc(OS(=O)(=O)O)c(O)c1 [S-DHMA 4-sulfate] | nM | 55 |
| CN[C@@H](C)Cc1ccc(O)c(OS(=O)(=O)O)c1 [S-DHMA 3-sulfate] | nM | 590 |
| CNC(C)Cc1ccc(OC2OC(C(=O)O)C(O)C(O)C2O)c(OC)c1 (stereo not drawn) [S-HMMA glucuronide] | nM | 490 |
| CC(N)Cc1ccc2c(c1)OCO2 (stereo not drawn) | nM | 41 |
| CN[C@@H](C)Cc1ccc(OS(=O)(=O)O)c(OC)c1 [S-HMMA sulfate] | nM | 410 |

Next, consider the following molecule.
Sample CN[C@@H](C)Cc1ccc2c(c1)OCO2 ; Cmax observed: 560

###

The following compounds are listed with their measured log10(AUC(0-t)) values.
Test: Chiral plasma pharmacokinetics of MDMA and its phase I and II metabolites after controlled MDMA administration
Assay type: in vivo, human
Details: both sexes, human, plasma, oral, 125 mg, placebo+MDMA (125 mg), CYP2D6 EM, n=13, plasma; read-out: AUC0-24h S
Experimental: Blood plasma samples were analyzed non-stereoselectively as reported previously and reanalyzed for the present report using liquid chromatography-mass spectrometry/mass spectrometry after chiral derivatization with Marfey’s reagent as described previously. The method was fully validated, including selectivity, recovery, matrix effects, bias and imprecision, stability, and limit of quantification.
Where a name gives a salt, the structure may show the parent alone.
The base-10 logarithm of AUC(0-t), taken with AUC(0-t) in µM·h, is what appears here.

Below: 5 compounds and their reported log10(AUC(0-t)).
| COMPOUND | VALUE_TYPE | TEST_VALUE |
| --- | --- | --- |
| CN[C@@H](C)Cc1ccc2c(c1)OCO2 | log10(AUC(0-t)) | 0.69 |
| CC(N)Cc1ccc2c(c1)OCO2 (stereo not drawn) | log10(AUC(0-t)) | -0.21 |
| CN[C@@H](C)Cc1ccc(O)c(OS(=O)(=O)O)c1 [S-DHMA 3-sulfate] | log10(AUC(0-t)) | 0.80 |
| CN[C@@H](C)Cc1ccc(OS(=O)(=O)O)c(O)c1 [S-DHMA 4-sulfate] | log10(AUC(0-t)) | -0.19 |
| CN[C@@H](C)Cc1ccc(OS(=O)(=O)O)c(OC)c1 [S-HMMA sulfate] | log10(AUC(0-t)) | 0.62 |

Sample CNC(C)Cc1ccc(OC2OC(C(=O)O)C(O)C(O)C2O)c(OC)c1 (stereo not drawn) [S-HMMA glucuronide] ; log10(AUC(0-t)) observed: 0.72
